// provenance: the supplement of paper PMC10567573

B1: FCHO1 (parent)
chain: FTSSPSPFSSSSPENVEDSGLDSP

# Variants of: B1
# measurement.protocol: protein stability index of a GFP-peptide fusion (GPS, HEK-293T) (PSI 1-6); higher = more stable;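 further: lentivirally expressed fusions sorted by FACS into six bins by GFP to DsRed ratio, PSI derived from sequencing read proportions per bin multiplied by bin number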
# measurement.parameters: c terminus: a fixed tail appended
Quick reference: protein stability index of the listed items.
measure.name: protein stability index

biopolymer_sequence="FTSSPSPFSSPSPENVEDSGLDSP [S11P]" measure_name="protein stability index" recorded_number=1.86
biopolymer_sequence="FTSSPSPFSSSSPENVMDSGLDSP [E17M]" measure_name="protein stability index" recorded_number=2.32
biopolymer_sequence="FTSSKSPFSSSSPENVEDSGLDSP [P5K]" measure_name="protein stability index" recorded_number=2.31
biopolymer_sequence="FTSSPSPFSSSSPENHEDSGLDSP [V16H]" measure_name="protein stability index" recorded_number=2.27
biopolymer_sequence="FTSSPSPFSSSSPENVEDSGLDMP [S23M]" measure_name="protein stability index" recorded_number=1.68
biopolymer_sequence="FTSSPSEFSSSSPENVEDSGLDSP [P7E]" measure_name="protein stability index" recorded_number=2.79
biopolymer_sequence="FTSIPSPFSSSSPENVEDSGLDSP [S4I]" measure_name="protein stability index" recorded_number=2.19
biopolymer_sequence="FTSSPSPFSSSSPENVEDYGLDSP [S19Y]" measure_name="protein stability index" recorded_number=2.78
biopolymer_sequence="DTSSPSPFSSSSPENVEDSGLDSP [F1D]" measure_name="protein stability index" recorded_number=5.61
biopolymer_sequence="FTSSPSPFSSSSPENVEDSGTDSP [L21T]" measure_name="protein stability index" recorded_number=2.52
biopolymer_sequence="FTSSPSPFSSSSPEVVEDSGLDSP [N15V]" measure_name="protein stability index" recorded_number=2.46
biopolymer_sequence="FVSSPSPFSSSSPENVEDSGLDSP [T2V]" measure_name="protein stability index" recorded_number=2.93
biopolymer_sequence="FTSSPSPFSNSSPENVEDSGLDSP [S10N]" measure_name="protein stability index" recorded_number=2.3
biopolymer_sequence="FTSSPSPFSCSSPENVEDSGLDSP [S10C]" measure_name="protein stability index" recorded_number=2.14
biopolymer_sequence="FTSSPSPFSFSSPENVEDSGLDSP [S10F]" measure_name="protein stability index" recorded_number=2.09
biopolymer_sequence="FTSSPSPFSSSSPSNVEDSGLDSP [E14S]" measure_name="protein stability index" recorded_number=2.17
biopolymer_sequence="FTSSPSPFSSSYPENVEDSGLDSP [S12Y]" measure_name="protein stability index" recorded_number=1.75
biopolymer_sequence="FTSSPSPFSSSSHENVEDSGLDSP [P13H]" measure_name="protein stability index" recorded_number=2.29
biopolymer_sequence="FTSSPSPFSSSSPMNVEDSGLDSP [E14M]" measure_name="protein stability index" recorded_number=2.05
biopolymer_sequence="FTSSPSPFSSSSPEFVEDSGLDSP [N15F]" measure_name="protein stability index" recorded_number=1.73
biopolymer_sequence="FTSSPSPFSSSSPENVEDSKLDSP [G20K]" measure_name="protein stability index" recorded_number=2.87
biopolymer_sequence="FTSSPSPFSSSSGENVEDSGLDSP [P13G]" measure_name="protein stability index" recorded_number=1.93
